These data points were gathered from ChEMBL document CHEMBL1857833.

I'd appreciate it if you could supply % inhibition values for the items below.
System: Trypanosoma brucei
Assay comment: DNDI: Inhibition of Human African Trypanosomiasis, SBRI 427, in vitro at 2 ug.mL-1
Assay type: functional
Among all 4,400 compounds or so, about 390 (8.9%) showed an effect of 50% or more. Only a selection was taken, and strong results are over-represented in it overall.
// units = %; emit number, no label

Tell me its % inhibition given CSc1ccc(Oc2nc(C)ccc2/C(=N/O)N2C(C)CCC2C)cc1C (configuration not stated) as the entry. 23

Tell me its % inhibition given CCC(C)(C)N/C(=N\O)c1ccc(C)nc1Oc1ccc(F)c(F)c1 as the entry. 11

Tell me its % inhibition given O/N=C(\NCc1cc(F)cc(F)c1)c1ccc(Oc2cccc(F)c2)nc1 as the entry. 42

Tell me its % inhibition given O/N=C(/c1cccnc1Oc1ccc(F)cc1Cl)N1CCCCCC1 as the entry. 11

Tell me its % inhibition given O/N=C(/c1cccnc1Oc1ccc(F)cc1Cl)N1CCCC1 as the entry. 13

Tell me its % inhibition given Cc1cc(Oc2ccc(/C(=N/O)NCc3ccncc3)cn2)cc(C(C)C)c1 as the entry. 3

Tell me its % inhibition given Cc1ccc(Oc2nc(C)ccc2/C(=N/O)NCc2ccccc2C)c(C)c1 as the entry. 43

Tell me its % inhibition given COc1ccc(-c2nc(CN3CCN(C)CC3)co2)cc1 as the entry. 4

Tell me its % inhibition given CC(NCc1coc(-c2ccc(C(F)(F)F)cc2)n1)C1CCCCC1 (configuration not stated) as the entry. 7

Tell me its % inhibition given COc1ccc(CN/C(=N\O)c2ccc(C)nc2OCc2ccccc2F)cc1 as the entry. -1

Tell me its % inhibition given CC(C)c1cccc(Oc2cc(/C(=N/O)NCc3ccncc3)ccn2)c1 as the entry. 10

Tell me its % inhibition given O/N=C(\NCCN1CCOCC1)c1cccnc1Oc1ccc2c(c1)CCCC2 as the entry. 8

Tell me its % inhibition given COCCN(/C(=N\O)c1ccc(C)nc1Oc1ccc(SC)c(C)c1)C(C)C as the entry. 9

Tell me its % inhibition given COC(=O)C1CCN(/C(=N\O)c2ccc(C)nc2Oc2cccc3cnccc23)CC1 as the entry. 21

Tell me its % inhibition given COc1ccc(-c2nc(CNCCc3ccc(C)cc3)co2)cc1 as the entry. -3

Tell me its % inhibition given CN1CCCC1CCN/C(=N\O)c1cccnc1Oc1cccc(C(F)(F)F)c1 (configuration not stated) as the entry. 3

Tell me its % inhibition given O/N=C(\NCc1ccncc1)c1ccc(Oc2cccc(F)c2)nc1 as the entry. 50

Tell me its % inhibition given COCC(C)NCc1coc(-c2cccc(C)c2)n1 (configuration not stated) as the entry. 19

Tell me its % inhibition given CCOc1ccccc1CN/C(=N\O)c1ccc(C)nc1Oc1ccc(C)cc1C as the entry. 99

Tell me its % inhibition given COc1cc2c(cc1OC)C(C(C)C)N(Cc1coc(-c3ccccc3Cl)n1)CC2 (configuration not stated) as the entry. 3

Tell me its % inhibition given CN(Cc1cccnc1)/C(=N\O)c1ccc(Oc2ccc3ccccc3c2)nc1 as the entry. 9

Tell me its % inhibition given CCOc1ccccc1CN/C(=N\O)c1ccc(C)nc1Oc1ccc(SC)c(C)c1 as the entry. -24

---

Tested on: Trypanosoma brucei
Assay comment: DNDI: Inhibition of Human African Trypanosomiasis, SBRI 427, in vitro at 2 ug.mL-1
Assay type: functional
The campaign covered roughly 4,400 compounds. About 390 (8.9%) showed an effect of 50% or more. The full list was thinned out, with strong results kept by preference.
Measured attribute: % inhibition (%)
// units = %; emit number, no label

Given COc1cccc(-c2nc(CNc3ccc(C(C)=O)cc3)co2)c1 , report its % inhibition on Trypanosoma brucei. 18

Given Cc1ccc(/C(=N/O)NCc2cccs2)c(Oc2cc(Cl)ccc2Cl)n1 , report its % inhibition on Trypanosoma brucei. 16

Given C=CCc1ccc(Oc2nc(C)ccc2/C(=N/O)N2CCSCC2)c(OC)c1 , report its % inhibition on Trypanosoma brucei. 48

Given CCOc1cccc(-c2nc(CN(C)C3CCN(Cc4ccccc4)C3)co2)c1 (stereo unspecified) , report its % inhibition on Trypanosoma brucei. -2

Given COc1ccc(CN/C(=N\O)c2ccc(C)nc2Oc2cc(Cl)ccc2Cl)cc1 , report its % inhibition on Trypanosoma brucei. 14

Given Cc1ccc(-c2nc(CNc3cc[nH]n3)co2)cc1 , report its % inhibition on Trypanosoma brucei. 10

---

System: Trypanosoma brucei
Assay comment: DNDI: Inhibition of Human African Trypanosomiasis, SBRI 427, in vitro at 2 ug.mL-1
Assay type: functional
About 390 (8.9%) of roughly 4,400 compounds showed an effect of 50% or more. What follows is part of a selection rich in strong results, with near analogues and random picks from the rest.
Measured attribute: % inhibition (%)
// units = %; emit number, no label

Tell me its % inhibition given COC(=O)C1CCN(Cc2coc(-c3ccc(O)cc3)n2)CC1 as the entry. -3

Tell me its % inhibition given CCCCN(CC)Cc1coc(-c2ccccc2Cl)n1 as the entry. 19

Tell me its % inhibition given CCOc1ccccc1Oc1ncccc1/C(=N/O)NCCOC as the entry. 13

Tell me its % inhibition given CC1CCCCN1CCCNCc1coc(-c2ccccc2Br)n1 (centres undefined) as the entry. 20

Tell me its % inhibition given CC1CCCCN1CCCNCc1coc(-c2cccc3ccccc23)n1 (centres undefined) as the entry. 86

Tell me its % inhibition given Cc1ncn(Cc2coc(-c3ccc(Br)cc3)n2)c1C=O as the entry. 10

Tell me its % inhibition given COc1ccc(Oc2ncccc2/C(=N/O)NCCSC)cc1 as the entry. 10

Tell me its % inhibition given CCN(CCC#N)Cc1coc(-c2cccc3ccccc23)n1 as the entry. 10

Tell me its % inhibition given COCCN(/C(=N\O)c1ccc(C)nc1OCc1ccccc1F)C(C)C as the entry. 18

Tell me its % inhibition given CC1CC(C)CN(/C(=N\O)c2ccnc(Oc3ccc(Cl)cc3)c2)C1 (centres undefined) as the entry. 67

Tell me its % inhibition given O/N=C(/c1cccnc1Oc1ccc(F)cc1)N1CCCCCC1 as the entry. 1

Tell me its % inhibition given CSCCN/C(=N\O)c1cccnc1Oc1c(F)cccc1F as the entry. 78

Tell me its % inhibition given N/C(=N\O)c1ccnc(Oc2cc(Cl)ccc2Cl)c1 as the entry. 20

Tell me its % inhibition given COCCN/C(=N\O)c1cccnc1Oc1c(F)cccc1F as the entry. 65

Tell me its % inhibition given c1ccc2c(-c3nc(CNCCCN4CCCC4)co3)cccc2c1 as the entry. 93

Tell me its % inhibition given O/N=C(\NC1CCC1)c1ccnc(Oc2cc(Cl)ccc2Cl)c1 as the entry. 95

Tell me its % inhibition given CC1CC(C)CN(/C(=N\O)c2ccnc(Oc3cccc(C(C)C)c3)c2)C1 (centres undefined) as the entry. 58

Tell me its % inhibition given c1ccc2c(-c3nc(CNCCN4CCCCC4)co3)cccc2c1 as the entry. 14

Tell me its % inhibition given CC1CC(C)CN(/C(=N\O)c2ccnc(Oc3cccc(F)c3)c2)C1 (centres undefined) as the entry. -1

Tell me its % inhibition given CSCCN/C(=N\O)c1cccnc1Oc1cccc2ccccc12 as the entry. 11

Tell me its % inhibition given COc1cccc(CN/C(=N\O)c2ccnc(Oc3cc(Cl)ccc3Cl)c2)c1 as the entry. 11

Tell me its % inhibition given CC1CCCN1/C(=N\O)c1cccnc1Oc1ccc(F)cc1 (centres undefined) as the entry. 2

Tell me its % inhibition given COc1cc(-c2nc(CN3CCC(Cc4ccccc4)CC3)co2)cc(OC)c1OC as the entry. 6

Tell me its % inhibition given CC1CC(C)CN(/C(=N\O)c2ccnc(Oc3ccc(F)c(Cl)c3)c2)C1 (centres undefined) as the entry. 16

---

Tested on: Trypanosoma brucei
Assay comment: DNDI: Inhibition of Human African Trypanosomiasis, SBRI 427, in vitro at 2 ug.mL-1
Assay type: functional
Out of some 4,400 compounds screened, about 390 (8.9%) showed an effect of 50% or more. The sample as a whole holds a higher share of strong results than the screen did.
Measured attribute: % inhibition (%)
// units = %; emit number, no label

Tell me its % inhibition given c1ccc(-c2nc(CN3CCN(C4CCCCC4)CC3)co2)cc1 as the entry. -4

Tell me its % inhibition given COc1cccc(-c2nc(CNCc3ccc(C(C)(C)C)cc3)co2)c1 as the entry. 5

Tell me its % inhibition given CCCCN(C)Cc1coc(-c2cccs2)n1 as the entry. 15

Tell me its % inhibition given Cc1ccc(/C(N)=N/O)c(Oc2ccc(C(C)C)cc2)n1 as the entry. 31

Tell me its % inhibition given c1ccc2c(-c3nc(CNCCN4CCOCC4)co3)cccc2c1 as the entry. 7

Tell me its % inhibition given COc1ccc(-c2nc(CNCc3ccc(C(C)(C)C)cc3)co2)cc1 as the entry. 4

Tell me its % inhibition given CSc1ccc(Oc2ncccc2/C(N)=N/O)cc1C as the entry. 17

Tell me its % inhibition given Cc1ccc(/C(N)=N/O)c(Oc2cccc(C(C)C)c2)n1 as the entry. 57

Tell me its % inhibition given COc1cccc(N2CCN(Cc3coc(-c4ccc(Cl)cc4Cl)n3)CC2)c1 as the entry. 10

Tell me its % inhibition given COc1ccc(NCc2coc(-c3ccc(OC)cc3)n2)cc1 as the entry. 9

Tell me its % inhibition given CC(NCc1coc(-c2ccc(OC(F)(F)F)cc2)n1)c1cccc2ccccc12 (stereo unspecified) as the entry. -34
